Catalogue of sequences with associated apparent KD of MS2 coat protein
Tested on: MS2 coat protein
method: apparent KD of MS2 coat protein; designed switch direction (-1 OFF switch, 1 ON switch): -1; higher = weaker reporter binding
experimental_parameters: input ligand: none
endpoint_label: apparent KD of MS2 coat protein (nM)

INSERT INTO assay_data (residue_sequence, unit_of_measure, test_value) VALUES
  ('CUCUGCACGCUGCGGUCCUACAUGAGGAUCACCCAUGUGGUCUGGUGGCGUGGGUCGCCGGACUUGGCUCGUCUUGG [salish99_S_TOV1_R5_047] (Eterna round: R97, puzzle: Sensor, turn-off variant 1)', 'nM', 15.8),
  ('GGUCUACAUGAGGAUCACCCAUGUAAGGAUAUCGUCACUGGAGCUGCGGCUCCAGUGACGAGAAGGUGCAUAAU [E1/11-A3] (Eterna round: R97, puzzle: Exclusion 1)', 'nM', 30.8),
  ('ACAUGUAUUGCAGGAUAUGGGACACAUGAGGAUCACCCAUGUGACUACAUGUCAUACCAAGCGUCUCAGAAGGGUAUGUACAUG [Ex NG2 #38] (Eterna round: R96, puzzle: Exclusion NG 2)', 'nM', 18.5),
  ('GUAAACGCAGAGGAUAUAUCAGAUCAAAGCUGCAUAGAAGGCUGCACAUGAGGAUCACCCAUGUGGUCUUCAAG [Mat - Exclusion 6 - JL Mod - D7] (Eterna round: R97, puzzle: Exclusion 6)', 'nM', 31.2),
  ('GGUUCGAGUGUGAGGAUAUGCUGGUCCUUGGAUCAGCAGAAGGCACAUGAGGAUCACCCAUGUGGUAACGGACC [Mat - Exclusion 4 - Eli Mod - D35] (Eterna round: R97, puzzle: Brourd''s mod of Exclusion 4)', 'nM', 331);

###

Catalogue of sequences with associated apparent KD of MS2 coat protein
Test system: MS2 coat protein
method: apparent KD of MS2 coat protein; designed switch direction (-1 OFF switch, 1 ON switch): -1; higher = weaker reporter binding
experimental_parameters: input ligand: FMN 200 uM
endpoint_label: apparent KD of MS2 coat protein (nM)

INSERT INTO results (residue_sequence, tested_target, endpoint_label, test_value) VALUES
  ('GUCAGCUCGUCAGGAUAUACAUGAGGAUCACCCAUGUGAUCAAUAGCAGCUUCGGCUGCAAUAAUGUAGAAGGGACGAGCUGAC [ENG2/8-F] (Eterna round: R96, puzzle: Exclusion NG 2)', 'MS2 coat protein', 'apparent KD of MS2 coat protein', 129),
  ('UUUAAACAUGAGGAUCACCCAUGUUAGGAUAUACGAAUGCAGACACACACGGAUGCAAGUAGAAGGAACCAUGC [Design #8] (Eterna round: R97, puzzle: Exclusion 1)', 'MS2 coat protein', 'apparent KD of MS2 coat protein', 44.1),
  ('GCAAAAUAUCAGGAUAUGACUUUUUGCGUUAAGUCAGAAGGGAUAACAUGAGGAUCACCCAUGUGAUAUAGUGU [JR_Ex6_Sub031] (Eterna round: R97, puzzle: Exclusion 6)', 'MS2 coat protein', 'apparent KD of MS2 coat protein', 261),
  ('GUAAUUCGAGGAUAUGCCCAUCUAAACAUGAGGAUCACCCAUGUGCGCAUGUUUACCAUCGCAGAAGGCGAGCUGC [Eternabot (L1) Solution 31] (Eterna round: R97, puzzle: Exclusion 5)', 'MS2 coat protein', 'apparent KD of MS2 coat protein', 39.3),
  ('CCGUCGGUAGGAUAUGCUAUGCAUGUCGGCGCUAUUUGAGGACAUGAGGAUCACCCAUGUAGAAGGGCCGAGGU [Eternabot (L1) Solution 55] (Eterna round: R97, puzzle: Exclusion 2)', 'MS2 coat protein', 'apparent KD of MS2 coat protein', 22.7);
